- assay overview: Toxicity liver stage against HepG2, at 10uM
- Assay type: cell-based
- Parameters: test concentration 10 uM, cell line HepG2-A16-CD81EGFP
- measurement context: human, HepG2-A16-CD81EGFP cells; read-out: INHIBITION
We begin with a simple list: items and their reported cytotoxicity at 10 µM.
Unit % implied. Number only.

Worked set:
[
  {
    "compound": "COC[C@@H]1CCC[C@@]12CN(C(=O)C1CCOCC1)CCO2",
    "cytotoxicity at 10 µM, %": -111
  },
  {
    "compound": "c1ccc2c(N3CCOC(Cn4cccn4)C3)ncnc2c1 (centres undefined)",
    "cytotoxicity at 10 µM, %": -1.04
  },
  {
    "compound": "Cc1cc(C(=O)NCc2cccnc2N2CCc3ccccc3C2)[nH]n1",
    "cytotoxicity at 10 µM, %": 14.4
  }
]

Query string: Requested field: cytotoxicity at 10 µM. Item: COc1ccccc1OC1CCN(c2nc(N)nc3[nH]cnc23)CC1
Result string: 2.94

====

- assay overview: Toxicity liver stage against HepG2, at 10uM
- Type: cell-based
- Set-up: test concentration 10 uM, cell line HepG2-A16-CD81EGFP
- measurement context: human, HepG2-A16-CD81EGFP cells; read-out: INHIBITION
measurement label: cytotoxicity at 10 µM (%)
Unit % implied. Number only.

Query string: Requested field: cytotoxicity at 10 µM. Item: COCc1nn(Cc2ccc(Br)s2)c(=O)o1
Result string: 1.99

Query string: Then CCOC(=O)CC(c1ccc(OC)c(OC)c1)c1c(O)n[nH]c1C (stereo unspecified) ?
Result string: 1.64

Query string: Then CCCn1cnc(NC(=O)NCC2CCS(=O)(=O)C2)n1 (stereo unspecified) ?
Result string: 10.3

Query string: Then Cc1cc(CNC(=O)N2CCOC(c3ccccc3Cl)C2)no1 (stereo unspecified) ?
Result string: 0.658

Query string: Then Cc1c(NC(C)C(C)C)cccc1C(=O)NCc1nccn1C (stereo unspecified) ?
Result string: -5.99

Query string: Then COCCN1CCN(C(=O)C[C@@H]2C[C@@H](C(C)C)[C@H](CC#N)C=C2C)CC1 ?
Result string: 0.788

====

- assay overview: Toxicity liver stage against HepG2, at 10uM
- Type: cell-based
- Parameters: test concentration 10 uM, cell line HepG2-A16-CD81EGFP
- measurement context: human, HepG2-A16-CD81EGFP cells; read-out: INHIBITION
We begin with a simple list: items and their reported cytotoxicity at 10 µM.
Unit % implied. Number only.

Worked set:
[
  {
    "smiles representation": "Cc1cccc(-n2ncc3c(=O)n(CCN4CCCCC4)cnc32)c1C",
    "value units": "%",
    "cytotoxicity at 10 µM": -6.57
  },
  {
    "smiles representation": "CC(C)c1nsc(N2CCc3sccc3C2)n1",
    "value units": "%",
    "cytotoxicity at 10 µM": 20.9
  }
]

Query string: Requested field: cytotoxicity at 10 µM. Item: Cn1ncc(NC(=O)Cn2ccc(-c3ccc(F)cc3)n2)n1
Result string: 1.05

====

- assay overview: Toxicity liver stage against HepG2, at 10uM
- Type: cell-based
- Set-up: test concentration 10 uM, cell line HepG2-A16-CD81EGFP
- measurement context: human, HepG2-A16-CD81EGFP cells; read-out: INHIBITION
measurement label: cytotoxicity at 10 µM (%)
Unit % implied. Number only.

Worked set:
[
  {
    "compound": "Cc1cnc(CNC(=O)NCc2cccnc2N(C)C)s1",
    "cytotoxicity at 10 µM, %": -12.4
  },
  {
    "compound": "O=C(c1cc(Cl)c2c(c1)OCO2)N1CCN(c2cnccn2)CC1",
    "cytotoxicity at 10 µM, %": 6.76
  },
  {
    "compound": "CC(=O)N1CC(=O)N(c2cnn(C)c2)CC12CCN(Cc1ccco1)C2 (stereo unspecified)",
    "cytotoxicity at 10 µM, %": 2.41
  },
  {
    "compound": "O=C([C@H]1CCCO1)N1CCOC2(CCCN(c3ncccc3F)C2)C1 (stereo partly specified)",
    "cytotoxicity at 10 µM, %": 1.73
  },
  {
    "compound": "O=C1COC2(CCN(Cc3ccsc3)CC2)CN1",
    "cytotoxicity at 10 µM, %": -3.46
  },
  {
    "compound": "CCC=C(C)C(=O)N1CSCC1C(=O)N(C)CCc1ccncc1 (stereo unspecified)",
    "cytotoxicity at 10 µM, %": -9.72
  },
  {
    "compound": "CCOc1ccc(C(=O)Nc2c(C)nc3ccc(Cl)cn3c2=O)cc1",
    "cytotoxicity at 10 µM, %": -4.31
  },
  {
    "compound": "CC1CCCN(Cc2ccc(CNC(=O)NCc3ccncc3)cc2)C1 (stereo unspecified)",
    "cytotoxicity at 10 µM, %": 4.64
  },
  {
    "compound": "COc1cccc(F)c1-c1nc2c([nH]1)c(C1CC1)nn2C",
    "cytotoxicity at 10 µM, %": 0.271
  },
  {
    "compound": "COc1cc(N2CCC3(CC2)CCN(c2cccnc2)C3=O)ncn1",
    "cytotoxicity at 10 µM, %": -116
  }
]

Query string: Requested field: cytotoxicity at 10 µM. Item: Cc1ncsc1C(=O)N1CC[C@@]2(O)CCN(C(=O)N3CCCC3)C[C@H]2C1
Result string: -14.2
